FYI, the data here is from ChEMBL document CHEMBL1201862.

- Test system: OVCAR-3
- assay overview: NCI tumour cell line growth inhibition, 48 h
The source made the active and inactive calls. Cut-off read from the data, not from the text of the source: active = GI50 up to about 1.1 µM and inactive = higher.
Give measured GI50 for each item. Keep answers brief.

GI50 for Cn1c(=O)c2nc(NCCO)cnc2n(C)c1=O ?
23.3 µM (inactive)

Again, but for O=[N+]([O-])c1c(O)c2nonc2c2nn(-c3ccccc3)nc12
> 100 µM (inactive)

Let us now turn to O=c1n(-c2ccccc2)c(=O)n2n1C1C=CC2C2C(C1)C2(Cl)Cl (stereo unspecified)
> 100 µM (inactive)

Please do the same for CC(C)(C)[Si](Nc1ccccc1)(c1ccccc1)c1ccccc1 as well.
14.3 µM (inactive)

Same question for Cc1cc(NS(=O)(=O)c2ccc(NC(=O)c3ccc4nc5ccccc5c(Nc5ccc(S(=O)(=O)Nc6cc(C)on6)cc5)c4c3)cc2)no1 please.
> 50 µM (inactive)

What do you get for CCc1c(C)[nH]c2c1/C(=N/N=C1\CCCc3[nH]c(C)c(CC)c31)CCC2 ?
14.5 µM (inactive)

Another: CC(N)Cc1ccc(Cl)cc1 (stereo unspecified)
> 100 µM (inactive)

Could you do the same for C[N+]12C=CC=C1C(N1CCCC1)c1scc(-c3ccc(F)cc3)c12 (stereo unspecified) , please?
14.6 µM (inactive)

Same read-out for COc1ccc2ccc3c(c2c1)CN1CCc2cc(OC)c(OC)cc2C1C3 (stereo unspecified) ?
> 100 µM (inactive)

Would you kindly repeat that for CCCCCCCCCCCCSC(=S)c1c(C)[nH]n(-c2ccccc2)c1=O ?
13.3 µM (inactive)

Try the compound C/C(=N\NC1=NCCN1)c1cn(C2=NCCN2)nc1C
> 100 µM (inactive)

Also CC1(C)C/C=C\CCC(O)C(O)CCC(C)(C)C1=O (stereo unspecified) , if possible.
> 100 µM (inactive)

Next compound: O=C1C2CC=CCC2C(=O)C12CCc1ccccc12 (stereo unspecified)
> 100 µM (inactive)

Next entry: CCCCCCNC(=O)c1cc(CCc2cc(O)ccc2O)ccc1O
2.3 µM (inactive)

Try the compound CN(C)CCNC(=O)c1cccc2c(=O)c3ccccc3oc12
37.8 µM (inactive)

Try this compound too: CC(=O)O[C@H]1/C(=C/c2ccc(N(C)C)cc2)C[C@H]2[C@@H]3CC=C4C[C@@H](N5CCCC5)CC[C@]4(C)[C@H]3CC[C@]12C
> 100 µM (inactive)

Queued: CCN(CC)CCNc1ccc2ncn3c4cc(O)ccc4c(=O)c1c23
3.37 µM (inactive)

Please do the same for CC1CC(=O)Nc2ccccc2N1C(=O)C1CC1 (stereo unspecified) as well.
> 100 µM (inactive)

Follow-up entry: CCOC(=O)NC(=O)c1cn(CCN2CCN(C(=O)CNC(=O)CNC(=O)Cn3cc(C(=O)NC(=O)OCC)c(=O)[nH]c3=O)CC2)c(=O)[nH]c1=O
> 100 µM (inactive)

Again, but for COc1ccc(N2C(=O)CC(c3c[nH]c4ccccc34)C2=O)cc1 (stereo unspecified)
> 100 µM (inactive)

# repeat for CC(C)(C)CC(C)(C)c1ccc(O)c(C[N+](C)(C)[O-])c1
58.5 µM (inactive)
